- Test system: SF-295
- protocol: NCI tumour cell line growth inhibition, 48 h
Active and inactive are the calls of the source. No stated cut-off is given here; in the data, active = GI50 up to about 1.1 µM and inactive = higher.
Hi there, use one of these labels in your reply, thanks! active, inactive

Study these solved cases before continuing.
• COC1=CC23C=CC1[C@@H](c1ccccc1)C2=C(C)C(=O)N3C(=O)NC1CCCCC1 (stereo partly specified) = inactive
• CCCCNC(=O)Nc1c(C(N)=O)c2n(c1C(=O)OCC)CCCCC2 = inactive
• O=S(=O)(O)c1cc(S(=O)(=O)O)c2c(/N=N/c3ccccc3)c(O)ccc2c1 = inactive
• CNC(C)Cc1ccc(O)cc1 (stereo unspecified) = inactive
• O=C1Nc2ccccc2/C1=N/NC(=S)N1CCCC1 = active

Look up the recorded call for COc1cccc2c1C(=O)c1c(O)c3c(c(O)c1C2=O)CC(O)(C(C)=O)CC3O (stereo unspecified) in this test.
inactive

Look up the recorded call for O=C(N/C(=C\c1ccccc1)C1Nc2ccccc2C(=O)O1)c1ccccc1 (stereo unspecified) in this test.
inactive

Look up the recorded call for COCOc1c(C(O[Si](C)(C)C(C)(C)C)c2cnc(Sc3ccccc3)n2C)ccc(OC)c1OC (stereo unspecified) in this test.
inactive

Look up the recorded call for CCCCNC(=O)OCC(COc1ccccc1OC)OC(=O)NCCCC (stereo unspecified) in this test.
inactive

Look up the recorded call for CCCCCCCCCCCCCCCCCCOP(=O)([O-])OC1CC[N+](C)(C)CC1 in this test.
inactive

Look up the recorded call for Cc1nc(N)nn1C1OCC(O)C(O)C1O (stereo unspecified) in this test.
inactive

* * *

- Test system: EKVX
- protocol: NCI tumour cell line growth inhibition, 48 h
Calls of active or inactive are those of the source. Cut-off read from the data, not from the text of the source: active = GI50 up to about 1.1 µM and inactive = higher.
measured-quantity: GI50

* Cc1cc(S(=O)(=O)NC2=Nc3ccc(Cl)cc3C(c3ccccc3)N2)c(S)cc1Cl (centres undefined) | > 100 µM (inactive)
* C=C1C(=O)OCC2C(C(=O)O)=CC3C(C)C(C)=CC123 (centres undefined) | 21.7 µM (inactive)
* CC1(COS(=O)(=O)OCC2(C)COS(=O)(=O)OC2)COS(=O)(=O)OC1 | > 71.1 µM (inactive)

Respond only with GI50 recorded for COC(=O)C1=C(c2ccc(OC)c(OC)c2)OC(c2cc(OC)c(OC)c(OC)c2)C1 (centres undefined)
> 100 µM (inactive)

Respond only with GI50 recorded for COc1cccc2c1C(=O)c1c(O)c3c(c(O)c1C2=O)CC(O)(C(C)=O)CC3O (centres undefined)
4.9 µM (inactive)

Respond only with GI50 recorded for Cc1ccc(Nc2nc(=S)[nH]c3[nH]ncc23)cc1
> 100 µM (inactive)

Respond only with GI50 recorded for COC(=O)c1c(C)[nH]c2c1cc(O)c1nc(C)c(C)nc12
> 100 µM (inactive)

Respond only with GI50 recorded for O=C1c2cc3c(cc2[C@@H]2C(O)[C@H]4O[C@H]4C4CCN1C42)OCO3 (some centres undefined)
> 37.5 µM (inactive)

Respond only with GI50 recorded for C=C(CC[C@@H](C(=O)O)[C@H]1[C@H](O)C[C@@]2(C)C3=CC[C@@H](C(=C)C)[C@](C)(CCC(=O)O)C3=CC[C@]12C)C(C)C
17.6 µM (inactive)

* * *

- Test system: NCI-H460
- protocol: NCI tumour cell line growth inhibition, 48 h
The source made the active and inactive calls. Cut-off read from the data, not from the text of the source: active = GI50 up to about 1.1 µM and inactive = higher.
Hi there, use one of these labels in your reply, thanks! 1 (yes) for active, 0 (no) for inactive

Look up the recorded call for COc1cc(C(C)c2cc3c(cc2OCCCCOc2cc4c(cc2C(C)c2cc(OC)c(OC)c(OC)c2)OCO4)OCO3)cc(OC)c1OC (stereo unspecified) in this test.
0 (no)

Look up the recorded call for COc1cc(/C=N/N=C(\N)NO)cc(OC)c1OC in this test.
0 (no)

Look up the recorded call for CCOc1ccc2nc(-c3ccc(O)cc3)sc2c1 in this test.
0 (no)

Look up the recorded call for NCCCC[C@H](N)C(=O)Nc1ccc(-c2nc3ccccc3s2)cc1Cl in this test.
1 (yes)

Look up the recorded call for CCC(C#N)NCc1cccc(CNC(C#N)CC)c1 (stereo unspecified) in this test.
0 (no)

Look up the recorded call for C1CCN2CC3CONC3C2C1 (stereo unspecified) in this test.
0 (no)

Look up the recorded call for CC1(COS(=O)(=O)OCC2(C)COS(=O)(=O)OC2)COS(=O)(=O)OC1 in this test.
0 (no)

Look up the recorded call for C=C1CC(C)(c2ccc(Nc3nc4ccccc4c4occc34)cc2)OC1=O (stereo unspecified) in this test.
0 (no)
